# Condition label: in toluene, 328.35 K

{"Smiles structure": "Nc1ccc(Cl)nn1", "solubility (mole fraction)": 0.00025}

* * *

# Condition label: in ethyl acetate, 298.45 K
Assay metric: solubility (mole fraction)

{"Smiles structure": "Nc1ccc(Cl)nn1", "Recorded value": 0.00133}

* * *

# Condition label: in DMF, 318.15 K

{"Smiles structure": "Nc1ccc(Cl)nn1", "solubility (mole fraction)": 0.0592}

* * *

# Condition label: in ethanol, 333.15 K

{"Smiles structure": "Nc1ccc(Cl)nn1", "solubility (mole fraction)": 0.00848}

* * *

# Condition label: in ethanol, 298.15 K

{"Smiles structure": "Nc1ccc(Cl)nn1", "solubility (mole fraction)": 0.00206}
